- ASSAY TARGET: T1, human GIP receptor (human), P48546
- T1 chain: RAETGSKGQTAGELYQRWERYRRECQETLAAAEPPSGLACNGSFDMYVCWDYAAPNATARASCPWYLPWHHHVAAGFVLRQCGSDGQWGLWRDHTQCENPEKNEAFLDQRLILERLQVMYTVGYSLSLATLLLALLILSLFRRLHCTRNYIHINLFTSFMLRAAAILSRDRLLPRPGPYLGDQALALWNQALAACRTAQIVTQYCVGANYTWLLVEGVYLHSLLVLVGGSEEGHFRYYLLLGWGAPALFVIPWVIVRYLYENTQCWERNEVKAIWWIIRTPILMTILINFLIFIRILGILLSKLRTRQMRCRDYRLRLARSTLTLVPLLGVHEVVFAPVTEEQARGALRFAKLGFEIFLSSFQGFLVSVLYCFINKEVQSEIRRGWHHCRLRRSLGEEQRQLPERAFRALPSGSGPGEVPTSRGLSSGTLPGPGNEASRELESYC
- EXPERIMENTAL DETAILS: 125I-GIP displacement, HEK-GIPR membranes
ENDPOINT: IC50 (nM)
Answers are plain numbers, in nM.

Determine its reported IC50: YAEGTFISDYSIAMDKIHQQDFVNWLLAQKPQQIRYS (modifications not checked) [0601GIP4855]
0.72

Provenance of the data: patent US20130137631A1
